Values compiled from PubChem BioAssay (NCI).

- Test system: SF-295 CNS
- ASSAY: NCI tumour cell line growth inhibition, 48 h
Hi there, I'd appreciate the recorded GI50 for every entry that follows.

COC(=O)[C@]12CC[C@@H](C)[C@H](C)[C@@H]1C1=CC[C@@H]3[C@@]4(C)C(C=O)=C[C@@](C)(COC(C)=O)[C@@H]4[C@H](O)C[C@@]3(C)[C@]1(C)CC2 | 1.67 µM
Nc1ccn([C@H]2C[C@@H](O)[C@@H](CO)S2)c(=O)n1 | > 100 µM
COc1cccc(/C=C/C(=O)c2ccc(Cl)cc2Cl)c1OC | 15 µM
COc1cc2c3c(n(CCN)c(=O)c2cc1OC)-c1cc2c(cc1C3=O)OCO2 | < 0.0352 µM
COc1ccc2nc(NCCCNCCO)c3sc4ccc(F)cc4c(=O)c3c2c1 | 1.73 µM

Please state GI50 for every molecule in the list that follows.
1. CC(=O)OCC1OC(OC2CC3C(C)(C)C(OC(C)=O)CC[C@]3(C)C3CCC45CC4(CC[C@H]5C(C)CC(O)C4OC4(C)C)[C@]23C)C(O)C(O)C1O (stereo not given in full)
2. C=C(CNCCc1ccc(O)cc1)[C@@H]1CC[C@]2(CO)CC[C@]3(C)[C@H](CC[C@@H]4[C@@]5(C)CCC(=O)C(C)(C)[C@@H]5CC[C@]43C)[C@@H]12
3. Cn1ccc(=Nc2ccc(NC(=O)c3ccc(N=c4ccn(C)c5ccc([N+](=O)[O-])cc45)cc3)cc2)cc1
4. N#CC1C(=N)Cc2ccccc2-c2ccccc21 (stereo not given)
5. O=C([O-])c1ccc2c(c1)-c1nc-2nc2[n-]c(nc3nc(nc4[n-]c(n1)c1ccc(C(=O)[O-])cc41)-c1cc(C(=O)[O-])ccc1-3)c1ccc(C(=O)[O-])cc21.[Fe+2]

Reply text:
["3.34 µM", "1.74 µM", "12.8 µM", "2.21 µM", "> 50 µM"]

Please state GI50 for every molecule in the list that follows.
1. Nc1nc2ccc([C@@H]3Nc4ccc5[nH]ncc5c4[C@H]4[C@H]5CCC(C5)[C@H]43)cc2s1
2. COc1cc2cc(Oc3ccc(NC(=O)Nc4ccccc4)cc3)c(C)nc2cc1OCCN1CCCCC1
3. O=C1C(Cl)=C(Nc2ccc3cn[nH]c3c2)C(=O)c2ccccc21
4. CN(C)CCNC(=O)c1cccc2cc3ccccc3nc12
5. CCCCCCCCOc1ccc(/C=N/Nc2cc(C)nc3ccc(Cl)cc23)cc1
6. CN1CCN(c2ccc(-c3cnc4c(-c5csc6ccccc56)cnn4c3)cc2)CC1

Reply text:
1: 0.648 µM; 2: 6 µM; 3: 1.67 µM; 4: 1.26 µM; 5: 1.83 µM; 6: > 15 µM

Please state GI50 for every molecule in the list that follows.
1. CN1CCN(CC(=O)Nc2ccc3ncnc(Nc4ccc(Oc5cccc(C(F)(F)F)c5)c(Cl)c4)c3c2)CC1
2. Nc1ccc(C#Cc2cncnc2Nc2ccc(OCc3cccc(F)c3)c(Cl)c2)cc1
3. O=C1c2ccccc2S(=O)(=O)N1CSC(=S)N1CCCC1
4. CCC(C(=O)[O-])C(=O)[O-].CCC(C(=O)[O-])C(=O)[O-].N.N.NCCCCCN.[Pt+4].[Pt+4]

Reply text:
["1.81 µM", "10.6 µM", "> 100 µM", "> 100 µM"]
